System: MALME-3M melanoma
assayName: NCI tumour cell line growth inhibition, 48 h; in the data active means GI50 below about 0.43 µM; inactive means the rest
Please reply with one of these outcomes: yes (1) (active), no (0) (inactive)

compound | category
NCCN.O=C([O-])CN1CCOCC1.[OH-].[Pt+4] | no (0)

Recorded test call requested for Cc1ccc(-c2nc3nc(-c4ccccc4)nc(N4CCNCC4)c3o2)cc1
no (0)

Recorded test call requested for COC(=O)c1cc2ccccc2c2c3c(ccc12)OCO3
no (0)

Recorded test call requested for O1[As]2O[As]3O[As]1O[As](O2)O3
no (0)

====

System: SN12C renal
assayName: NCI tumour cell line growth inhibition, 48 h
recordedEndpoint: TGI

Example entries and their recorded answers appear below.
compoundString | TGI
O=C1/C(=N\O)S(=O)(=O)c2ccccc21 | > 100 µM
O=C1CC(=O)NC(=NNS(=O)(=O)c2ccc(Cl)cc2)N1 | > 100 µM
CCOc1ccc(N/C(=C(/C(Cl)=C(/Cl)NC(C)(C)C)[N+](=O)[O-])n2nnc3ccccc32)cc1 | > 100 µM
CC[C@H](CO)Nc1nc(NCc2ccccc2)c2ncn(C(C)C)c2n1 | > 100 µM

Entry O=C(Nc1ccc(Oc2cccc(F)c2)c(Cl)c1)c1cnccn1 ; TGI = > 50 µM

====

Record form. Attribute: TGI. Fill in for each entry.
Tested on: 786-0 renal
assayName: NCI tumour cell line growth inhibition, 48 h

molecule | TGI
COc1ccc(-c2oc3c(OC)c(OC)cc(O)c3c(=O)c2OC)cc1 | > 100 µM
NC(=O)NC12CC3CC(CC(F)(C3)C1)C2 | > 100 µM
O=C(O)C(CS)NCc1c2ccccc2nc2ccccc12 (stereo not drawn) | > 100 µM
CC1(C)N=C(C2CCCN2C(=O)OCc2ccccc2)OC1=O (stereo not drawn) | > 100 µM
COC(=O)C12OC3CO[Si](C(C)C)(C(C)C)O[Si](C(C)C)(C(C)C)OC3C1Oc1nc(=O)ccn12 (stereo not drawn) | 31.6 µM
CC1(C)CC2CC(CC(C)(C)C2=O)C1=O | > 100 µM

Items follow; give TGI for each.
1. CCC[CH2][Sn]1([CH2]CCC)[O]C2C(CO)OC(n3ccc(N)nc3=O)C2[O]1 (stereo not drawn)
2. CC1=C(C(=O)N[C@@H](CC(C)C)C(=O)O)N2C(=O)[C@@H](NC(=O)C(N)c3ccccc3)[C@H]2SC1 (stereo partly drawn)
3. COC1=C(C)C(=O)c2c(cc3c(c2O)C(C)(CCC=C(C)C)C(C)O3)C1=O (stereo not drawn)
4. COc1ccc(COC2CC(OC)OC(C)C2OC(=O)c2ccccc2)cc1 (stereo not drawn)
5. CCc1ccc2c(c1)C(=O)c1c-2n(CCCN=[N+]=[N-])c(=O)c2cc(OC)c(OC)cc12
6. CCOC1CC(C)N(C(=O)c2ccccc2)O1 (stereo not drawn)
7. CC1(C)[C@@H]2C[C@H]1c1cnc(-c3ccccn3)cc1C2CCCCC[C@@H]1c2cc(-c3ccccn3)ncc2[C@@H]2C[C@H]1C2(C)C (stereo partly drawn)

["2.88 µM", "> 100 µM", "> 100 µM", "> 100 µM", "> 100 µM", "> 100 µM", "11.5 µM"]

====

Record form. Attribute: TGI. Fill in for each entry.
Test system: U251 CNS
assayName: NCI tumour cell line growth inhibition, 48 h

compound | TGI
CC(C)N(C(C)C)S(=O)(=O)C[C@]12CC[C@H](CC13OCC(CS(=O)(=O)c1ccccc1)O3)C2(C)C (some centres not stated) | > 100 µM
C=C1c2ccoc2C[C@H]2[C@H]1CC[C@@]1(O)[C@@](C)(C(=O)OC)CCC[C@]21C | > 100 µM
O=C(O)C(CS)NCc1c2ccccc2nc2ccccc12 (configuration not stated) | > 100 µM
O=c1cc(-c2ccccc2)[nH]c2nccn12 | > 10 µM

Items follow; give TGI for each.
1. CCOC(=O)/C(O)=C(/C(=O)OC)c1ccc(Cl)cc1
2. OC1CSc2nc3ccccc3n2C1 (configuration not stated)
3. O=c1oc2cc(O)ccc2c(O)c1Cc1c(O)c2ccc(O)cc2oc1=O
4. CCOC1CC(C)N(C(=O)c2ccccc2)O1 (configuration not stated)

1. > 100 µM
2. > 100 µM
3. > 100 µM
4. > 100 µM

Items follow; give TGI for each.
1. CN(C)c1ccc(C=C2C(=O)NC(=S)NC2=O)c2ccccc12
2. O=C(N/C(=C\c1ccc(/C=C(\NC(=O)c2ccccc2)c2nc3ccccc3[nH]2)cc1)c1nc2ccccc2[nH]1)c1ccccc1
3. CCc1ccccc1NC(=O)/C(N=O)=C(/C)O
4. CN(C)C(=O)c1cnc2oc3ccc(O)cc3c2c1-c1ccccc1

["> 100 µM", "> 100 µM", "> 100 µM", "> 25 µM"]

====

Tested on: SK-MEL-28 melanoma
assayName: NCI tumour cell line growth inhibition, 48 h
Record form. Attribute: TGI. Fill in for each entry.

Example entries and their recorded answers appear below.
compoundString | recordedEndpoint | testValue
COc1ccc(-c2c(C#N)c(S)n(NS(=O)(=O)c3ccccc3)c(=O)c2C#N)cc1 | TGI | > 100 µM
O=[N+]([O-])c1ccc(N=Nc2ccc(O)c3ccccc23)cc1 | TGI | > 100 µM
CC(=O)[O][Sn]([CH2]c1ccccc1)([CH2]c1ccccc1)[CH2]c1ccccc1 | TGI | > 6.79 µM

As a next step, examine the compound that follows.
Entry O=C1CC(=O)NC(=NNS(=O)(=O)c2ccc(Cl)cc2)N1 ; TGI = > 100 µM

====

System: MDA-MB-435
assayName: NCI tumour cell line growth inhibition, 48 h
recordedEndpoint: TGI

Example entries and their recorded answers appear below.
compound | TGI
COc1ccc(CC(=O)c2ccc(O)cc2O)cc1 | > 100 µM
O=c1oc2cc(O)ccc2c(O)c1Cc1c(O)c2ccc(O)cc2oc1=O | > 100 µM

As a next step, examine the compound that follows.
Entry CC1(C)N=C(C2CCCN2C(=O)OCc2ccccc2)OC1=O (stereo not drawn) ; TGI = > 100 µM

====

Test system: RPMI-8226 leukemia
assayName: NCI tumour cell line growth inhibition, 48 h; in the data active = GI50 below about 0.43 µM; inactive = the rest
Please reply with one of these outcomes: TRUE = active, FALSE = inactive

Observe how each entry below is paired with its result.
compound | target | category
O=S(=O)(c1cccc2c(I)cccc12)N1CCCNCC1 | RPMI-8226 leukemia | FALSE
COc1cc(OC)c2[nH]c3c(O)c(-c4c(C)cc5c([nH]c6c(OC)cc(OC)cc65)c4O)c(C)cc3c2c1 | RPMI-8226 leukemia | FALSE
COc1ccccc1CNCCCN1C(=O)c2ccc3c4c(ccc(c24)C1=O)C(=O)N(CCCN)C3=O | RPMI-8226 leukemia | FALSE

Recorded test call requested for CN(C)c1ccc(C(=NO)c2ccc(N(C)C)cc2)cc1
FALSE

Recorded test call requested for CCC[CH2][Sn]1([CH2]CCC)[O]C2C(CO)OC(n3ccc(N)nc3=O)C2[O]1 (configuration not stated)
TRUE

Recorded test call requested for O=c1c(O)c(-c2ccc(O)c(O)c2)oc2cc(O)cc(O)c12
FALSE

Recorded test call requested for Cc1[nH]c2ccc(F)cc2c1-c1nc2c3cccnc3c3ncccc3c2[nH]1
FALSE

====

System: MDA-MB-435
assayName: NCI tumour cell line growth inhibition, 48 h
recordedEndpoint: TGI

Example entries and their recorded answers appear below.
compound | TGI
COC(=O)CCC(NC(=O)OC(C)(C)C)C(=O)NC(Cc1ccc(NC(=O)CCCC(C)=O)cc1)C(=O)NC(CCC(=O)OC)C(=O)OC (stereo unspecified) | > 100 µM
CN1CCc2[nH]nc(-c3n[nH]c4c3CN(C)CC4)c2C1 | > 100 µM
CCOC1CC(C)N(C(=O)c2ccccc2)O1 (stereo unspecified) | > 100 µM
COc1ccc(NC(=S)c2ccoc2C)cc1CC(=O)OC(C)C | > 100 µM
Nc1ccccc1C#C/C=C\C#Cc1cccc(O)c1 | 4.12 µM

As a next step, examine the compound that follows.
Entry Cc1ccc(C(=O)N/N=C(\N=Nc2ccc(C(=O)O)cc2)c2ccc(N(CCC#N)CCC#N)cc2C)cc1 ; TGI = > 100 µM

====

System: K-562 leukemia
assayName: NCI tumour cell line growth inhibition, 48 h
recordedEndpoint: TGI

compound | TGI
OC1CSc2nc3ccccc3n2C1 (stereo not drawn) | > 100 µM

Items follow; give TGI for each.
1. Cc1ccc2c(/C=C/c3ccc(N(C)C)cc3)ccc(C(C)C)cc1-2
2. COC(=O)C12OC3CO[Si](C(C)C)(C(C)C)O[Si](C(C)C)(C(C)C)OC3C1Oc1nc(=O)ccn12 (stereo not drawn)

["> 100 µM", "30.6 µM"]

====

Record form. Attribute: TGI. Fill in for each entry.
Tested on: IGROV1 ovarian
assayName: NCI tumour cell line growth inhibition, 48 h

compound | TGI
CCCCCCCCCCCCCCCCCCOCC(O)COP(=O)(O)OCC1OC(n2ccc(N)nc2=O)C(O)C1O (centres undefined) | 28.5 µM
CC(=O)OC(C)(C)CCC(=O)[C@](C)(O)[C@H]1[C@H](O)C[C@@]2(C)[C@@H]3CCc4c(cc(OC5OC(CO)C(O)C(O)C5O)c(O)c4C)C3(C)C(=O)C[C@]12C (some centres undefined) | > 100 µM

Items follow; give TGI for each.
1. CC(=O)Oc1ccc2c3c1O[C@H]1[C@H](O)CC[C@@]4(O)[C@@H](C2)N(C)CC[C@]314
2. CCOC(=O)c1c(NC(=S)Nc2ccccc2)sc2c1CCOC2

["> 100 µM", "> 100 µM"]

These data points were gathered from PubChem BioAssay (NCI).
